# targetOrSystem: EGFR (ErbB1) T790M L858R (Homo sapiens, UniProt P00533, L858R/T790M)
# Construct: purchased Invitrogen
# Sequence (P00533 25-1210 T790M/L858R): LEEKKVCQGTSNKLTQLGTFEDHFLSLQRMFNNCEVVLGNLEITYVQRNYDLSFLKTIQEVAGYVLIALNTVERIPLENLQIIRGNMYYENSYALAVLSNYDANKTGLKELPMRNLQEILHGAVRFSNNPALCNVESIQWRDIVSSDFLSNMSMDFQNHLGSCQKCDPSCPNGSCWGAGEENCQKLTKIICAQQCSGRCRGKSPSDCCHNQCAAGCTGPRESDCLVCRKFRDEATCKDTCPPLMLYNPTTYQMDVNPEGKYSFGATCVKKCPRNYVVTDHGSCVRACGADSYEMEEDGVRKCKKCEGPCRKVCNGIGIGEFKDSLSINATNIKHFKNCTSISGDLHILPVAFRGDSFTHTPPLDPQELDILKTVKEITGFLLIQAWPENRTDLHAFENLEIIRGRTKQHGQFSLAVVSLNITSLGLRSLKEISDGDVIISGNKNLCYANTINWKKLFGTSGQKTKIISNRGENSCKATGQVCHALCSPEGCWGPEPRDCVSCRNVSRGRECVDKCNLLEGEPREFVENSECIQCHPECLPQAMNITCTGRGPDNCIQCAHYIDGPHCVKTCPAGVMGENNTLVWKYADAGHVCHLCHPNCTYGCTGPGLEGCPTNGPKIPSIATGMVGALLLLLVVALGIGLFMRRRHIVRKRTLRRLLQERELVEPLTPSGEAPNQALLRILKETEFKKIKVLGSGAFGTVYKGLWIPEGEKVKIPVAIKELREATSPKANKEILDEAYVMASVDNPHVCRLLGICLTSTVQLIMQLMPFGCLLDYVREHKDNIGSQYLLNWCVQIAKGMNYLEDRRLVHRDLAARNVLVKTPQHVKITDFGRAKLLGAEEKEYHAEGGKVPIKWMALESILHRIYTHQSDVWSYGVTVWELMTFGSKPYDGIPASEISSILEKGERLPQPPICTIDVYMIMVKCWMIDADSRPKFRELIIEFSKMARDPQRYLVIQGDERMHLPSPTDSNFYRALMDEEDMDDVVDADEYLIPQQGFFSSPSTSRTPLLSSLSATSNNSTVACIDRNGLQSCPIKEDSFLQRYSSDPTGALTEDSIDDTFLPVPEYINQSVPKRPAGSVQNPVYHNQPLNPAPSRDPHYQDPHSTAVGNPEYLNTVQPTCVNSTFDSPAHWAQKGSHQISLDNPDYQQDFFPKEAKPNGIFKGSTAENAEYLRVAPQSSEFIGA
# assayName: In vitro kinase assay (Z′-LYTE)
# Format: biochemical
# measurementSetup: read-out: % of inhibition of the kinase compared to the control
propertyMeasured: inhibition at 0.1 µM

Previously resolved entries follow.
[[record]]
compound = "COC(=O)c1cc2cc(NCc3cc(NC(=O)c4ccc(CN5CCOCC5)c(C(F)(F)F)c4)ccc3C)cnc2[nH]1 [OR0598]"
propertymeasured = "inhibition at 0.1 µM"
measurement = "< 50%"

[[record]]
compound = "COC(=O)c1cc2cc(NCc3cc(NC(=O)c4cccc(C(C)C)c4)ccc3C)cnc2[nH]1 [OR0610]"
propertymeasured = "inhibition at 0.1 µM"
measurement = "< 50%"

[[record]]
compound = "COC(=O)c1cc2cc(NC(=O)c3cc(NC(=O)c4cncc(C(F)(F)F)c4)ccc3C)cnc2[nH]1 [OR0745]"
propertymeasured = "inhibition at 0.1 µM"
measurement = "< 50%"


Consider the record given below.
Entry COC(=O)c1cc2cc(NCc3cc(NC(=O)c4ccc(CNCCN5CCN(C)CC5)c(C(F)(F)F)c4)ccc3C)cnc2[nH]1 [OR0637] ; inhibition at 0.1 µM = ≥ 50%

====

# Test system: HUVEC
# assayName: In vitro cell proliferation assay (MTT)
# Type: cell-based
# measurementSetup: Homo sapiens, 72 h
pEC50: −log10 of the molar value.
propertyMeasured: pEC50

Previously resolved entries follow.
[[record]]
compound = "COC(=O)c1cc2cc(NCc3cccc(NC(=O)c4ccc(CN5CCN(C)CC5)c(C(F)(F)F)c4)c3)cnc2[nH]1 [OR1067]"
measurement = "≥ 7.00"

[[record]]
compound = "COC(=O)c1cc2cc(NCc3cccc(C(=O)Nc4cccnc4)c3)cnc2[nH]1 [OR0916]"
measurement = "≤ 6.00"

[[record]]
compound = "COC(=O)c1cc2cc(NCc3cc(NC(=O)c4cncc(C)c4)ccc3C)cnc2[nH]1 [OR0867]"
measurement = "≤ 6.00"


Consider the record given below.
For COC(=O)c1cc2cc(NCc3cc(NC(=O)c4cc(N(C)C)cc(C(F)(F)F)c4)ccc3C)cnc2[nH]1 [OR0597] on HUVEC, measured pEC50 was 6.00 to 7.00

====

# targetOrSystem: BRAF (Homo sapiens, UniProt P15056)
# Construct: purchased Invitrogen
# Sequence (P15056 whole entry): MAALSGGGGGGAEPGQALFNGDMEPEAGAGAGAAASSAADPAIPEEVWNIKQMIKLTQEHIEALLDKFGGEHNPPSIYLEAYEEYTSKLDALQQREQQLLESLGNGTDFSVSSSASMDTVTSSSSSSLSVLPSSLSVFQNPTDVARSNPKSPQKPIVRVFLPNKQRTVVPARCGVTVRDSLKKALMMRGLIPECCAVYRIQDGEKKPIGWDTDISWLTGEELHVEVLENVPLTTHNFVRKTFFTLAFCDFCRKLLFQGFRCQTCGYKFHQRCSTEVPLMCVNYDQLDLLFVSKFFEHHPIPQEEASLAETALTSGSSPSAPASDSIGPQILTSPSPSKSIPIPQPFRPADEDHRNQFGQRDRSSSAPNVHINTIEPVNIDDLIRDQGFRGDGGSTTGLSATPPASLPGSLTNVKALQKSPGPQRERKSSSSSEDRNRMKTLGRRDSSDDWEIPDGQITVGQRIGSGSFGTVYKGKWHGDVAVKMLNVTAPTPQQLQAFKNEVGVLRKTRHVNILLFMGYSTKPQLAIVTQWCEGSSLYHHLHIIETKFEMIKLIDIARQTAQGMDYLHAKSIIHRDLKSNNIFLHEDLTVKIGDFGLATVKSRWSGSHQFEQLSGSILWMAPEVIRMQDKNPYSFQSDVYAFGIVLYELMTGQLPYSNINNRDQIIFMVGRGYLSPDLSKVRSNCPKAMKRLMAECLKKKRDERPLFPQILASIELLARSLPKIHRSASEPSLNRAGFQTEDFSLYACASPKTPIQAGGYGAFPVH
# assayName: In vitro kinase assay (Z′-LYTE)
# Format: biochemical
# measurementSetup: compound 100 nM; ATP 100 μM; read-out: % of inhibition of the kinase compared to the control
Collected inhibition at 0.1 µM values appear next to each entry.

[[record]]
compound = "COC(=O)c1cc2cc(NCc3cc(NC(=O)c4cc[nH]c4)ccc3C)cnc2[nH]1"
propertymeasured = "inhibition at 0.1 µM"
measurement = "≥ 50%"

[[record]]
compound = "COC(=O)c1cc2cc(NCc3cc(NC(=O)c4cncc(C)c4)ccc3C)cnc2[nH]1"
propertymeasured = "inhibition at 0.1 µM"
measurement = "≥ 50%"


Entry `COC(=O)c1cc2cc(NCc3cc(NC(=O)c4ccnc(C)c4)ccc3C)cnc2[nH]1` ; inhibition at 0.1 µM = ≥ 50%

Entry `COC(=O)c1cc2cc(NCc3cc(NC(=O)c4ccc(Cl)c(C(F)(F)F)c4)ccc3C)cnc2[nH]1` ; inhibition at 0.1 µM = < 50%

Entry `COC(=O)c1cc2cc(NCc3cc(NC(=O)c4ccc(Cn5cnc(C)c5)c(C(F)(F)F)c4)ccc3C)cnc2[nH]1` ; inhibition at 0.1 µM = ≥ 50%

Entry `COC(=O)c1cc2cc(NCc3cc(NS(=O)(=O)c4ccc(C)cc4)ccc3C)cnc2[nH]1` ; inhibition at 0.1 µM = < 50%

Entry `COC(=O)c1cc2cc(NCc3cc(NC(=O)c4ccc(CN5CCNCC5)c(C(F)(F)F)c4)ccc3C)cnc2[nH]1` ; inhibition at 0.1 µM = ≥ 50%

Entry `COC(=O)c1cc2cc(NCc3cccc(NC(=O)c4ccc(CN5CCN(C)CC5)c(C(F)(F)F)c4)c3)cnc2[nH]1` ; inhibition at 0.1 µM = < 50%

Entry `COC(=O)c1cc2cc(NCc3cc(NC(=O)Nc4cccc(C(F)(F)F)c4)ccc3C)cnc2[nH]1` ; inhibition at 0.1 µM = < 50%

Entry `COC(=O)c1cc2cc(NC(=O)c3cc(NC(=S)c4cc(-n5cnc(C)c5)cc(C(F)(F)F)c4)ccc3C)cnc2[nH]1` ; inhibition at 0.1 µM = < 50%

Entry `COC(=O)c1cc2cc(NCc3cc(NC(=O)Nc4ccncc4)ccc3C)cnc2[nH]1` ; inhibition at 0.1 µM = < 50%

Entry `COC(=O)c1cc2cc(NCc3cc(NC(=O)c4cccc(OC(F)(F)F)c4)ccc3C)cnc2[nH]1` ; inhibition at 0.1 µM = < 50%

Entry `COC(=O)c1cc2cc(NCc3ccc(C)c(NC(=O)c4ccc(CN5CCN(C)CC5)c(C(F)(F)F)c4)c3)cnc2[nH]1` ; inhibition at 0.1 µM = < 50%

Entry `COC(=O)c1cc2cc(NCc3cc(NC(=O)c4ccnc(C(F)(F)F)c4)ccc3C)cnc2[nH]1` ; inhibition at 0.1 µM = < 50%

Entry `COC(=O)c1cc2cc(NCc3cc(NC(=O)Cc4cccc(C(F)(F)F)c4)ccc3C)cnc2[nH]1` ; inhibition at 0.1 µM = ≥ 50%

Entry `COC(=O)c1cc2cc(NC(=O)c3cc(NC(=O)c4cncc(C(F)(F)F)c4)ccc3C)cnc2[nH]1` ; inhibition at 0.1 µM = ≥ 50%

Entry `COC(=O)c1cc2cc(NCc3cc(NC(=O)c4ccc(-c5csc(C)n5)cc4)ccc3C)cnc2[nH]1` ; inhibition at 0.1 µM = < 50%

Entry `COC(=O)c1cc2cc(NCc3cc(NC(=O)c4ccc(C)c(C(F)(F)F)c4)ccc3C)cnc2[nH]1` ; inhibition at 0.1 µM = < 50%

Entry `COC(=O)c1cc2cc(NCc3cc(NC(=O)c4ccc(CN5CCN(C)CC5)c(F)c4)ccc3C)cnc2[nH]1` ; inhibition at 0.1 µM = ≥ 50%

Entry `COC(=O)c1cc2cc(NCc3cc(NS(=O)(=O)c4cccc(C(F)(F)F)c4)ccc3C)cnc2[nH]1` ; inhibition at 0.1 µM = < 50%

Entry `COC(=O)c1cc2cc(NCc3cc(NC(=O)c4cccc5c4OCC5)ccc3C)cnc2[nH]1` ; inhibition at 0.1 µM = < 50%

Entry `COC(=O)c1cc2cc(NCc3cc(NC(=O)c4ccc(CN5CCN(C)CC5)c(C(F)(F)F)c4)ccc3Cl)cnc2[nH]1` ; inhibition at 0.1 µM = < 50%

Entry `COC(=O)c1cc2cc(NCc3cc(NC(=O)c4ccccc4OC)ccc3C)cnc2[nH]1` ; inhibition at 0.1 µM = ≥ 50%

Entry `COC(=O)c1cc2cc(NC(=O)c3cc(NC(=O)c4ccc(CN5CCN(C)CC5)c(C(F)(F)F)c4)ccc3C)cnc2[nH]1` ; inhibition at 0.1 µM = ≥ 50%

====

# targetOrSystem: FGFR2 (Homo sapiens)
# Construct: purchased Invitrogen
# Sequence (P21802 22-821): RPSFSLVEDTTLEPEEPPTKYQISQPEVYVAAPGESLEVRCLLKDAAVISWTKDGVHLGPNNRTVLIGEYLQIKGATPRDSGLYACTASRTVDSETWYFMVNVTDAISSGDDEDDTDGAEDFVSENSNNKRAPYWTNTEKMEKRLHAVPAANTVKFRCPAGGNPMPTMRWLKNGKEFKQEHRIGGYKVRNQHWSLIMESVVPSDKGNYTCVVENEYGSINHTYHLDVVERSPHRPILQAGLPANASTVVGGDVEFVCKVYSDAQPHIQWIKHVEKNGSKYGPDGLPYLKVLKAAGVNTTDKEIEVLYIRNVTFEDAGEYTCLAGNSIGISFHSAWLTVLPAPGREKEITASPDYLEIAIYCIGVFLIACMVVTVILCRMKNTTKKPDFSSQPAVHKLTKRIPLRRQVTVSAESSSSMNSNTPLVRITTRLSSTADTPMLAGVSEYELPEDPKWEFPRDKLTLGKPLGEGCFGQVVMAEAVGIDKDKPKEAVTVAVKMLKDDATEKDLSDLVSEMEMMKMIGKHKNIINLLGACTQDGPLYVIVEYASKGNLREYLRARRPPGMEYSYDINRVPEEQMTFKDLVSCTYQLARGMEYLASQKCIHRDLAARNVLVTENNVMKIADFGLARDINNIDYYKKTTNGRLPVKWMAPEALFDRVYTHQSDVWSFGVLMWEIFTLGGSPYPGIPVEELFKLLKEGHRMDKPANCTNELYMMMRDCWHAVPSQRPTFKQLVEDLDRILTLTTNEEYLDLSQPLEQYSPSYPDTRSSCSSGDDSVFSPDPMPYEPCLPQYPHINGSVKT
# assayName: In vitro kinase assay (Z′-LYTE)
# Type: biochemical
# measurementSetup: read-out: % of inhibition of the kinase compared to the control
Collected inhibition at 0.1 µM values appear next to each entry.

[[record]]
molecule = "COC(=O)c1cc2cc(NCc3cc(NC(=O)c4ccc(C(F)(F)F)nc4)ccc3C)cnc2[nH]1"
measurement = "< 50%"


Entry COC(=O)c1cc2cc(NCc3cc(NC(=O)c4ccc(CN5CCC(N(C)C)C5)c(F)c4)ccc3C)cnc2[nH]1 (stereo not shown) ; inhibition at 0.1 µM = < 50%

Entry `COC(=O)c1cc2cc(NCc3cc(NC(=O)c4ccc(CN5CCN(C)CC5)c(C(F)(F)F)c4)ccc3F)cnc2[nH]1` ; inhibition at 0.1 µM = ≥ 50%

Entry `COC(=O)c1cc2cc(NCc3cc(NC(=O)c4cc[nH]c4)ccc3C)cnc2[nH]1` ; inhibition at 0.1 µM = < 50%

====

Collected pEC50 values appear next to each entry.
# Tested on: HUVEC
# assayName: In vitro cell proliferation assay (MTT)
# Type: cell-based
# measurementSetup: Homo sapiens, 72 h
pEC50: −log10 of the molar value.

Previously resolved entries follow.
[[record]]
compound = "COC(=O)c1cc2cc(NCc3cc(NC(=O)c4ccc5[nH]ccc5c4)ccc3C)cnc2[nH]1 [OR0617]"
propertymeasured = "pEC50"
measurement = "6.00 to 7.00"

[[record]]
compound = "COC(=O)c1cc2cc(NCc3cc(NC(=O)c4ccc(Cl)c(C(F)(F)F)c4)ccc3C)cnc2[nH]1 [OR0871]"
propertymeasured = "pEC50"
measurement = "6.00 to 7.00"

[[record]]
compound = "COC(=O)c1cc2cc(NCc3cc(NC(=O)c4ccc(CN5CCN(C)CC5)c(C(F)(F)F)c4)ccc3C)cnc2[nH]1 [OR0512]"
propertymeasured = "pEC50"
measurement = "≥ 7.00"


Entry COC(=O)c1cc2cc(NCc3cc(NC(=O)c4ccnc(C)c4)ccc3C)cnc2[nH]1 [OR0868] ; pEC50 = 6.00 to 7.00

Entry COC(=O)c1cc2cc(NCc3cc(NC(=O)c4ccc(CN5CCNCC5)c(C(F)(F)F)c4)ccc3C)cnc2[nH]1 [OR0613] ; pEC50 = ≥ 7.00

Entry COC(=O)c1cc2cc(NCc3cc(NC(=O)c4cccc(OC(F)(F)F)c4)ccc3C)cnc2[nH]1 [OR0611] ; pEC50 = 6.00 to 7.00

Entry COC(=O)c1cc2cc(NCc3ccc(C)c(NC(=O)c4ccc(CN5CCN(C)CC5)c(C(F)(F)F)c4)c3)cnc2[nH]1 [OR0622] ; pEC50 = 6.00 to 7.00
